Measurement target: BIR2 domain of XIAP (Homo sapiens (Human), UniProt P98170, C202A/C213G)
Sequence (P98170 other isoform, or with tags, fused parts or gaps, stated change not applied): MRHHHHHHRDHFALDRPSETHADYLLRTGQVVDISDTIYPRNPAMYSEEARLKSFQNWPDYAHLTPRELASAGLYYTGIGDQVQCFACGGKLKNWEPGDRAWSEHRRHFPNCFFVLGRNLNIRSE
Assay method text: TR-FRET assay for BIR2 (inhibition of binding of XIAP BIR2 domain to Peptide A)
Recorded conditions: 6x His-tagged BIR2 domain (aa 124-240 of XIAP), 20 nM Peptide A
pIC50: −log10 of the molar value.

[
  {
    "Compound": "CN[C@@H](C)C(=O)N[C@H](C(=O)N1CCc2ccc(Cl)cc2[C@H]1C(=O)Nc1c(F)cccc1F)C(C)C [Example 45]",
    "Measurement target": "BIR2 domain of XIAP (Homo sapiens (Human), UniProt P98170, C202A/C213G)",
    "pIC50": 7.33
  },
  {
    "Compound": "CN[C@@H](C)C(=O)N[C@H](C(=O)N1CCc2ccc(F)cc2[C@H]1C(=O)Nc1c(F)cccc1F)C(C)C [Example 42]",
    "Measurement target": "BIR2 domain of XIAP (Homo sapiens (Human), UniProt P98170, C202A/C213G)",
    "pIC50": 7.57
  },
  {
    "Compound": "CN[C@@H](C)C(=O)N[C@H](C(=O)N1CCc2ccc(Cl)cc2[C@@H]1C(=O)Nc1c(F)cccc1F)C(C)C [Example 44]",
    "Measurement target": "BIR2 domain of XIAP (Homo sapiens (Human), UniProt P98170, C202A/C213G)",
    "pIC50": 5.33
  },
  {
    "Compound": "CN[C@@H](C)C(=O)N[C@H](C(=O)N1CCc2ccc(F)cc2[C@@H]1C(=O)Nc1c(F)cccc1F)C(C)C [Example 41]",
    "Measurement target": "BIR2 domain of XIAP (Homo sapiens (Human), UniProt P98170, C202A/C213G)",
    "pIC50": 5.63
  }
]

Reference source for all entries: patent US9422332B2
